Organism: Homo sapiens
Assay: Selectivity ratio; ratio of pEC50 for human adenosine A2A receptor to pEC50 for human adenosine A3 receptor
experimental readout: Selectivity ratio

CNC(=O)[C@H]1O[C@@H](n2cnc3c(NC4CCCC4)nc(N)nc32)[C@H](O)[C@@H]1O | 79
CNC(=O)[C@H]1O[C@@H](n2cnc3c(NC4CCCC4)nc(N(C)C)nc32)[C@H](O)[C@@H]1O | 8
CNC(=O)[C@H]1O[C@@H](n2cnc3c(NCc4cccc(Cl)c4)nc(N)nc32)[C@H](O)[C@@H]1O | 631
CNC(=O)[C@H]1O[C@@H](n2cnc3c(NCc4cccc(I)c4)nc(N)nc32)[C@H](O)[C@@H]1O | 158
CNC(=O)[C@H]1O[C@@H](n2cnc3c(NC4CCCCC4)nc(N)nc32)[C@H](O)[C@@H]1O | 6
CNC(=O)[C@H]1O[C@@H](n2cnc3c(NC4CCCC4)nc(NC)nc32)[C@H](O)[C@@H]1O | 40
CCNc1nc(NC2CCCC2)c2ncn([C@@H]3O[C@H](C(=O)NC)[C@@H](O)[C@H]3O)c2n1 | 8

====

Biological target: Adenosine receptor A2a (Homo sapiens, UniProt P29274)
Sequence (P29274 whole entry): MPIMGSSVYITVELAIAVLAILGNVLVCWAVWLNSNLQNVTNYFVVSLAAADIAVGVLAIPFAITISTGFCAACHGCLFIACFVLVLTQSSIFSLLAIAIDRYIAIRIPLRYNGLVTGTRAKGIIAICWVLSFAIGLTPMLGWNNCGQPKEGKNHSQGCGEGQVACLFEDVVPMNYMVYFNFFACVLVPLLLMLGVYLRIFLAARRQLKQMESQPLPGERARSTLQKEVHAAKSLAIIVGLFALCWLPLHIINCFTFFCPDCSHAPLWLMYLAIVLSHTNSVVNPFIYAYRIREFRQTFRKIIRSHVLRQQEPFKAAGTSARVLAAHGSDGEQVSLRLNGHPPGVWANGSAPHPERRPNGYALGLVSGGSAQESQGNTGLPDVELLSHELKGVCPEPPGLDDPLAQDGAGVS
Experiment: Agonist activity at human adenosine A2A receptor expressed in FlpIn-CHO cells assessed as inhibition of forskolin-induced cAMP accumulation after 30 mins by fluorescence assay
pEC50: −log10 of the molar value.
experimental readout: pEC50

CNC(=O)[C@H]1O[C@@H](n2cnc3c(NC4CCCCC4)nc(N)nc32)[C@H](O)[C@@H]1O | 6.10
CNC(=O)[C@H]1O[C@@H](n2cnc3c(NC4CCCC4)nc(NC)nc32)[C@H](O)[C@@H]1O | 5.40
CNC(=O)[C@H]1O[C@@H](n2cnc3c(NC4CCCC4)nc(N)nc32)[C@H](O)[C@@H]1O | 5.90
CCNc1nc(NC2CCCC2)c2ncn([C@@H]3O[C@H](C(=O)NC)[C@@H](O)[C@H]3O)c2n1 | 6.30

====

Target: Adenosine receptor A1 (Homo sapiens, UniProt P30542)
Sequence (P30542 whole entry): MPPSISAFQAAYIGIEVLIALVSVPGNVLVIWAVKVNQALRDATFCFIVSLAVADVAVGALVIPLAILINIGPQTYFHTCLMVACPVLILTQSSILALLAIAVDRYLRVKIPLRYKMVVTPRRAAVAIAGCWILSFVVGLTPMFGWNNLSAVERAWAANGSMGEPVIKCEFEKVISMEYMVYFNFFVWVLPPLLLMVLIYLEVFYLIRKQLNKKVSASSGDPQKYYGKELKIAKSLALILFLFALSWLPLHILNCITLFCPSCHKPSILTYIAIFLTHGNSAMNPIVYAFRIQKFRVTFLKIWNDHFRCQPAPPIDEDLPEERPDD
Experiment: Agonist activity at human adenosine A1 receptor expressed in FlpIn-CHO cells assessed as inhibition of forskolin-induced cAMP accumulation after 30 mins by fluorescence assay
pEC50: −log10 of the molar value.
experimental readout: pEC50

CNC(=O)[C@H]1O[C@@H](n2cnc3c(NC)nc(N)nc32)[C@H](O)[C@@H]1O | 5.40
CNC(=O)[C@H]1O[C@@H](n2cnc3c(NC4CCCCC4)nc(N)nc32)[C@H](O)[C@@H]1O | 7.20
CNC(=O)[C@H]1O[C@@H](n2cnc3c(NCc4cccc(I)c4)nc(N)nc32)[C@H](O)[C@@H]1O | 6.60
CCCNc1nc(N)nc2c1ncn2[C@@H]1O[C@H](C(=O)NC)[C@@H](O)[C@H]1O | 6.50
CNC(=O)[C@H]1O[C@@H](n2cnc3c(NC4CCC4)nc(N)nc32)[C@H](O)[C@@H]1O | 7.20
CCCCNc1nc(N)nc2c1ncn2[C@@H]1O[C@H](C(=O)NC)[C@@H](O)[C@H]1O | 6.10
CNC(=O)[C@H]1O[C@@H](n2cnc3c(NCCc4ccccc4)nc(N)nc32)[C@H](O)[C@@H]1O | 6.50
CNC(=O)[C@H]1O[C@@H](n2cnc3c(NCc4cccc(Cl)c4)nc(N)nc32)[C@H](O)[C@@H]1O | 6.50
CCNc1nc(NC2CCCC2)c2ncn([C@@H]3O[C@H](C(=O)NC)[C@@H](O)[C@H]3O)c2n1 | 6.30
CNC(=O)[C@H]1O[C@@H](n2cnc3c(NCc4ccccc4)nc(N)nc32)[C@H](O)[C@@H]1O | 5.20
CNC(=O)[C@H]1O[C@@H](n2cnc3c(NCC(c4ccccc4)c4ccccc4)nc(N)nc32)[C@H](O)[C@@H]1O | 6.40
CNC(=O)[C@H]1O[C@@H](n2cnc3c(NC4CCCC4)nc(NC)nc32)[C@H](O)[C@@H]1O | 6.40
CNC(=O)[C@H]1O[C@@H](n2cnc3c(NC4CCCC4)nc(N)nc32)[C@H](O)[C@@H]1O | 7.40
CCNc1nc(N)nc2c1ncn2[C@@H]1O[C@H](C(=O)NC)[C@@H](O)[C@H]1O | 5.60
